System: OVCAR-8 ovarian
EXPERIMENTAL PROTOCOL: NCI tumour cell line growth inhibition, 48 h

[
  {
    "COMPOUND": "COc1cc2c(cc1OCCCC(=O)Nc1cc(C(=O)Nc3cc(C(=O)NCCCN(C)C)n(C)n3)n(C)n1)N=CC1CCCN1C2=O (centres undefined)",
    "TGI": "53.2 µM"
  },
  {
    "COMPOUND": "CCCCNC(=S)Nc1nc(C(=O)NNS(=O)(=O)c2ccccc2)cs1",
    "TGI": "> 100 µM"
  },
  {
    "COMPOUND": "C=C(CNCCO)[C@@H]1CC[C@]2(CO)CC[C@]3(C)[C@H](CC[C@@H]4[C@@]5(C)CCC(NCCc6ccc(O)cc6)C(C)(C)[C@@H]5CC[C@]43C)[C@@H]12 (some centres undefined)",
    "TGI": "2.8 µM"
  },
  {
    "COMPOUND": "CCCCCCCCCC[C@@H](O)[C@@H]1CC[C@@H]([C@@H]2CC[C@@H]([C@@H](O)CCCCCCCCCCC(O)CC3=CC(C)OC3=O)O2)O1 (some centres undefined)",
    "TGI": "> 10 µM"
  },
  {
    "COMPOUND": "CC(SC1=CC(=O)c2c(O)ccc(O)c2C1=O)C(=O)O (centres undefined)",
    "TGI": "> 89.3 µM"
  },
  {
    "COMPOUND": "CC1=C2N3C[C@@H](n4c(=O)n(C)c(=O)n43)C23CCC1n1c(=O)n(C)c(=O)n13",
    "TGI": "> 100 µM"
  },
  {
    "COMPOUND": "CN(C)c1ccc(C(c2ccc(N(C)C)cc2)c2ccc([N+](=O)[O-])cc2)cc1",
    "TGI": "> 100 µM"
  },
  {
    "COMPOUND": "NC(=O)c1ccccc1NC(=O)C(=O)C(c1cnc2ccc([N+](=O)[O-])cc2n1)[N+](=O)[O-] (centres undefined)",
    "TGI": "> 100 µM"
  },
  {
    "COMPOUND": "Nc1cc(CO)cc(Nc2c3ccccc3nc3occc23)c1",
    "TGI": "> 100 µM"
  },
  {
    "COMPOUND": "OCC1OC(N2C=C(c3nc4ccccc4s3)C3C=CC=CC32)C(O)C1O (centres undefined)",
    "TGI": "29.5 µM"
  },
  {
    "COMPOUND": "COC(=O)/C(=N/NC(C)(C)C)C(C(=O)C=C(C)C)C(=O)C(=O)Nc1ccc(Cl)cc1C (centres undefined)",
    "TGI": "> 100 µM"
  },
  {
    "COMPOUND": "C/C(=N/O)c1cccc(Nc2nc3ccccc3c3[nH]c4ccccc4c23)c1",
    "TGI": "> 24.4 µM"
  },
  {
    "COMPOUND": "COc1cccc(C2c3cc4c(cc3OC(N3CCOCC3)C2C)OCO4)c1O (centres undefined)",
    "TGI": "60.1 µM"
  },
  {
    "COMPOUND": "CC(=O)O/C(C)=C\\C(=O)O/N=C(\\N)c1ccc(C)cc1",
    "TGI": "> 100 µM"
  },
  {
    "COMPOUND": "CC1(C)C2CCC1C(=O)C(C=O)C2 (centres undefined)",
    "TGI": "> 100 µM"
  },
  {
    "COMPOUND": "Cc1ccc(S(=O)(=O)NCCN2c3nc4ccccc4cc3Sc3cc4ccccc4nc32)cc1",
    "TGI": "> 100 µM"
  },
  {
    "COMPOUND": "CC1(C)C(=O)/C(=C\\c2ccco2)C[C@]2(C)[C@H]3CC=C4[C@@H]5C[C@](C)(C(=O)O)CC[C@]5(C)CC[C@@]4(C)[C@]3(C)CC[C@@H]12",
    "TGI": "42.4 µM"
  },
  {
    "COMPOUND": "CCOC(=O)C(=O)Nc1c(C)cccc1CC",
    "TGI": "> 100 µM"
  },
  {
    "COMPOUND": "CN(C)CCCOC(=O)C(O)(Cc1ccccc1)C1CC1 (centres undefined)",
    "TGI": "> 100 µM"
  }
]
